System: 889142-216-R-J1-PDC complex spheroid viability;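 also: spheroids exposed to compounds for seven days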
Assay: Anticancer human tumor 889142-216-R-J1-PDC patient-derived bladder carcinoma cell line growth inhibition [POLQ]
Conditions: curve of first compound; second compound 0.1 µM
recorded.endpoint: IC50

INSERT INTO assay_data (compound, reported_result) VALUES
  ('CC1COCCN1c1cc(C2(O)CC3CCC(C2)O3)c2cnn(-c3ccn[nH]3)c2n1 (stereo not given) + Cc1cccc(N(C)C(=O)C2C(O)CCN2c2nc(C)cc(C(F)(F)F)c2C#N)c1', '0.071 µM'),
  ('CCc1cc2c(N3CCc4c(cc(Cn5ccnc5)cc4-c4cn(C)nc4C(F)(F)F)C3=O)cc(C)nc2c(OC)n1 + Nc1ccc(C#CCN(C(=O)Cc2ncc(C(F)(F)F)cc2C(F)(F)F)c2ccc(F)cc2)nn1', '> 10 µM'),
  ('Cn1ncnc1[C@H]1c2n[nH]c(=O)c3cc(F)cc(c23)N[C@@H]1c1ccc(F)cc1 + Nc1ccc(C#CCN(C(=O)Cc2ncc(C(F)(F)F)cc2C(F)(F)F)c2ccc(F)cc2)nn1', '> 0.1 µM'),
  ('COc1cc(C2c3cc4c(cc3C(OC3OC5COC(C)OC5C(O)C3O)C3COC(=O)C23)OCO4)cc(OC)c1O (stereo not given) + Nc1ccc(C#CCN(C(=O)Cc2ncc(C(F)(F)F)cc2C(F)(F)F)c2ccc(F)cc2)nn1', '> 10 µM'),
  ('CC[C@@]1(O)C(=O)OCc2c1cc1n(c2=O)Cc2cc3c(CN(C)C)c(O)ccc3nc2-1 + Cc1cccc(N(C)C(=O)C2C(O)CCN2c2nc(C)cc(C(F)(F)F)c2C#N)c1', '> 0.1 µM'),
  ('CC(=O)O[C@H]1C(=O)[C@@]2(C)[C@H]([C@H](OC(=O)c3ccccc3)[C@]3(O)C[C@H](OC(=O)[C@H](O)[C@@H](NC(=O)c4ccccc4)c4ccccc4)C(C)=C1C3(C)C)[C@]1(OC(C)=O)CO[C@@H]1C[C@@H]2O + Cc1cccc(N(C)C(=O)C2C(O)CCN2c2nc(C)cc(C(F)(F)F)c2C#N)c1', '0.344 µM'),
  ('O=C(Nc1ccc(O)c(NS(=O)(=O)c2ccc(F)cc2)c1)c1ccc(-c2ccccc2)cc1 + COC1C(OC(N)=O)C(O)C(Oc2ccc3c(O)c(NC(=O)c4ccc(O)c(CC=C(C)C)c4)c(=O)oc3c2C)OC1(C)C', '> 10 µM'),
  ('CCc1cc2c(N3CCc4c(cc(Cn5ccnc5)cc4-c4cn(C)nc4C(F)(F)F)C3=O)ccnc2c(OC)n1 + Cc1cccc(N(C)C(=O)C2C(O)CCN2c2nc(C)cc(C(F)(F)F)c2C#N)c1', '> 10 µM'),
  ('COc1cc(C2c3cc4c(cc3C(OC3OC5COC(C)OC5C(O)C3O)C3COC(=O)C23)OCO4)cc(OC)c1O (stereo not given) + COC1C(OC(N)=O)C(O)C(Oc2ccc3c(O)c(NC(=O)c4ccc(O)c(CC=C(C)C)c4)c(=O)oc3c2C)OC1(C)C', '> 10 µM'),
  ('CC1COCCN1c1cc(C2(O)CC3CCC(C2)O3)c2cnn(-c3ccn[nH]3)c2n1 (stereo not given) + COC1C(OC(N)=O)C(O)C(Oc2ccc3c(O)c(NC(=O)c4ccc(O)c(CC=C(C)C)c4)c(=O)oc3c2C)OC1(C)C', '0.132 µM');
